Tested on: HOP-92 NSCLC
Test: NCI-60 one-dose screen, 48 h
Details: 10 µM unless noted
This is part of a sample that, as a whole, favours compounds with a hit. Of some 83,000 tested, about 20% had one in any assay. The source made the active and inactive calls. Rule for the calls: active = growth percent below 10; inactive = the rest.
Give your call using only these classes: active, inactive

O=c1[nH]nc(-c2ccccc2)c2c(-c3ccccc3)onc12	active
CC/C=C\C/C=C\C[C@H](O)C/C=C1/C(=O)C=C[C@@H]1C/C=C\CCCC(=O)O	inactive
COC(=O)/C=C1\S/C(=N\NS(=O)(=O)c2ccc(C)cc2)N(c2ccccc2)C1=O	inactive
Nc1ccc2c(c1)c(N)nn2C(=O)Nc1ccc(Cc2ccccc2)cc1	inactive
C=C(C)[C@@H]1CC[C@]2(C)[C@H](CC=C3[C@@H]4CC(C)(C)CC[C@]4(C(N)=O)CC[C@]32C)[C@@]1(C)CCC#N	inactive
c1ccc2c(c1)nc(CN1CCOCC1)n1cc(N3CCCC3)nc21	active

*Q* Could you check what this test reported for `CN(C)c1ccc(/C=C/C(=O)c2cccc(Nc3nc(Nc4ccccc4)nc(Nc4ccccc4)n3)c2)cc1` ?
*A* inactive

*Q* Which outcome was assigned to `C#CCOc1nc(C)cc(C)c1C#N` in this test?
*A* inactive

*Q* Called result for `O=c1ccn2nc3ccccc3c2[nH]1`
*A* inactive

*Q* How did this test come out for `COc1ccc(NC(=O)CSc2nc(C)c(C(C)=O)n2-c2ccc([N+](=O)[O-])cc2)cc1` ?
*A* inactive

*Q* For CC1CC2Oc3ccc(Cl)cc3C(=O)N2O1 (stereo unspecified) , which call appears in the assay record?
*A* inactive

*Q* Status in this test for `CCOC(=O)C/C(C)=N\NC(=O)c1ccncc1` ?
*A* active

*Q* Dear colleague, could you share the recorded outcome for `CCc1c2c(nc3ccc(OC(=O)NCc4ccc(B5OC(C)(C)C(C)(C)O5)cc4)cc13)-c1cc3c(c(=O)n1C2)COC(=O)[C@]3(O)CC` when you have a moment?
*A* active

*Q* Could you kindly confirm the outcome this assay logged for `OC(COc1ccccc1Cl)COc1ccccc1Cl` ?
*A* inactive

*Q* Just curious, what result did Cc1cc(O)c(C2=NN(c3ccc(S(N)(=O)=O)cc3)C(c3ccccc3Cl)C2)cc1Cl (stereo unspecified) get here?
*A* inactive

*Q* Tell me the assay call for `Cc1cc(C)c(-c2c(C)cc(C)cc2CBr)c(CBr)c1` please.
*A* inactive

*Q* Outcome logged for `COc1ccc(-c2nc3ccc4[nH]ncc4c3c3c2CCCC3)cc1B(O)O` in this assay:
*A* inactive

*Q* Can you look up the reported call for `COc1ccccc1N1C(=O)/C(=C/C2=Cc3ccccc3OC2)SC1=S` for me?
*A* inactive

*Q* Record lookup: outcome of this test for O=c1cc(C2NNC(=S)N2)c2ccc3ccccc3c2o1 (stereo unspecified) ?
*A* inactive

*Q* Please let me know the test result on file for COc1ccc(Cl)cc1NC(=O)C(Br)C(Br)C(=O)O (stereo unspecified) .
*A* inactive

*Q* Please state the recorded outcome for this molecule: `COc1ccc(/C=c2\nc3n(-c4ccccc4)c4nc5c6c(sc5c(=N)n4n-3c2=O)CCCC6)cc1`
*A* inactive

====

Tested on: HOP-62 NSCLC
Experiment: NCI-60 one-dose screen, 48 h (100 = growth as untreated, 0 = no growth, -100 = all killed)
Conditions: 10 µM unless noted
This is part of a sample that, as a whole, favours compounds with a hit. Of some 83,000 tested, about 20% had one in any assay.
Measured attribute: growth (%)
One number for each entry, in %.

O=C(CCCCCCN1CC(=O)N2[C@@H](c3ccccc3Cl)c3[nH]c4ccccc4c3C[C@H]2C1=O)NO	73.3

Give growth for all molecules that follow.
1. C=CCn1c(C)nc2cc(Nc3nc(N4CCCC4)nc4ccccc34)ccc21
2. CCCc1cc2c(=O)c(C(=O)OC)c[nH]c2cc1N(CC)CC

*A*
1. 90.6
2. 90
